# method: RP, Merck Supelco Ascentis Express C18, 100 × 2.1 mm, 2 µm, 40 °C, 0.2 mL/min, estimated dead time 1.1 min; A: water + 0.1% formic acid, pH 3; B: acetonitrile + 0.1% formic acid, pH 3; gradient (min/%B) 0/5 2/5 17/99.9 20/99.9
# measurement parameters: stereoisomer not certain
We begin with a simple list: items and their reported log10 of LC retention time.
Units before log transform: min; reported quantity: LC retention time; transform: log10.

Guide cases for log10 of LC retention time, answers given:
Per the record, CC(CCC(=O)O)C1CCC2C3C(O)CC4CC(O)CCC4(C)C3CC(O)C12C (stereo not given) [CHOLATE] has log10 of LC retention time of 1.01

Per the record, O=C(O)CCCCCCCCCCCO [OMEGA-HYDROXYDODECANOATE] has log10 of LC retention time of 0.99

Per the record, "Cc1cc2nc3[nH]c(=O)[nH]c(=O)c3nc2cc1C" has log10 of LC retention time of 0.84

Per the record, O=C(O)CCCCCCCCCO [10-HYDROXYDECANOATE] has log10 of LC retention time of 0.90

Per the record, O=C(O)C(=O)Cc1c[nH]c2ccccc12 [INDOLE-3-PYRUVATE] has log10 of LC retention time of 0.85

New cases:
Per the record, CC(O)(CC(=O)O)CC(=O)O [3-HYDROXYMETHYLGLUTARATE] has log10 of LC retention time of 0.20

Per the record, CCC=CCC=CCC=CCC=CCC=CCC=CCCC(=O)O [DOCOSAHEXAENOATE] has log10 of LC retention time of 1.22

Per the record, O=c1[nH]c(=O)c2nccnc2[nH]1 [2,4-DIHYDROXYPTERIDINE] has log10 of LC retention time of 0.15

Per the record, "c1ncc2[nH]cnc2n1" has log10 of LC retention time of 0.13

Per the record, COc1cc(C=CC(=O)O)ccc1O [FERULATE] has log10 of LC retention time of 0.80

###

# method: RP, Merck Supelco Ascentis Express C18, 100 × 2.1 mm, 2 µm, 40 °C, 0.2 mL/min, estimated dead time 1.1 min; A: water + 0.1% formic acid, pH 3; B: acetonitrile + 0.1% formic acid, pH 3; gradient (min/%B) 0/5 2/5 17/99.9 20/99.9
# measurement parameters: stereoisomer not certain
# note: exactly 5 min is not below, so it is condition not met; use condition met for LC retention time strictly under it

Ask: LC retention time strictly < 5 min for this compound? CC12CCC3c4ccc(O)cc4CCC3C1CCC2O (stereo not given)
Result: condition not met

New cases:
Ask: LC retention time strictly < 5 min for this compound? CCC=CCC=CCC=CCC=CCC=CCCCC(=O)O [EICOSAPENTAENOATE]
Result: condition not met

Ask: LC retention time strictly < 5 min for this compound? O=C(O)C=Cc1ccc(O)cc1 [4-COUMARATE]
Result: condition not met

Ask: LC retention time strictly < 5 min for this compound? O=C(O)c1ccccc1 [BENZOATE]
Result: condition not met

Ask: LC retention time strictly < 5 min for this compound? "CC(C)=CCNc1ncnc2nc[nH]c12"
Result: condition not met

Ask: LC retention time strictly < 5 min for this compound? NC(=O)[C@@H](N)Cc1c[nH]c2ccccc12 [L-TRYPTOPHANAMIDE]
Result: condition met

These measurements were taken from the RepoRT retention time repository (doi:10.1007/s00216-021-03828-0).
